Target: Axl (UniProt P30530)
Sequence (P30530 26-451 limits assumed): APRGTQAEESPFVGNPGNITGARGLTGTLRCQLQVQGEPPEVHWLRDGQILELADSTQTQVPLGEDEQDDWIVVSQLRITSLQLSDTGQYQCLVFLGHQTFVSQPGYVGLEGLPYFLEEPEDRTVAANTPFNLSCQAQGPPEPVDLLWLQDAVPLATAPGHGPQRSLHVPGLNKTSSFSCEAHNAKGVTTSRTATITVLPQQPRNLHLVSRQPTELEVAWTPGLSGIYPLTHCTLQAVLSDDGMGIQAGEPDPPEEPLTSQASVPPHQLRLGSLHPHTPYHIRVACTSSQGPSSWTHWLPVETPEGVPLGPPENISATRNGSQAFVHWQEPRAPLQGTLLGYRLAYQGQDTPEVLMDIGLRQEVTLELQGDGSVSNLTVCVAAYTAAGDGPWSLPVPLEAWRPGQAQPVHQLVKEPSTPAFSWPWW
Assay: ELISA, 1:3 dilution
outcomeMeasure: Affinity ELISA CPE mutant ratio (1:3, pH 6.0/7.4)

A selection of reference data follows.
| binder | reportedValue |
| --- | --- |
| LC-H091I (antibody, V domains shown) VH: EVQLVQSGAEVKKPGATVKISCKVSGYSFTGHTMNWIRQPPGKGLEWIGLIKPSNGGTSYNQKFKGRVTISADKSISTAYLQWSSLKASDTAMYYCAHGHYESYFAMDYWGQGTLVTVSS VL: DIQMTQSPSSLSASVGDRVTITCKASQDVSSAVAWYQQKPGQAPRLLIYWASTRHTGVPSRFSGSGSGTEFTLTISSLQPDDFATYYCQEIFSTPLTFGQGTKVEIK | 1.55 |
| LC-P095D (antibody, V domains shown) VH: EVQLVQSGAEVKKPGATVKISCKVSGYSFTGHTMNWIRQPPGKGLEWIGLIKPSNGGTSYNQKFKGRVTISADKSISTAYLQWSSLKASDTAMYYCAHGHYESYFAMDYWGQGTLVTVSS VL: DIQMTQSPSSLSASVGDRVTITCKASQDVSSAVAWYQQKPGQAPRLLIYWASTRHTGVPSRFSGSGSGTEFTLTISSLQPDDFATYYCQEHFSTDLTFGQGTKVEIK | 3.95 |

Task: Affinity ELISA CPE mutant ratio (1:3, pH 6.0/7.4) lookup needed for LC-F092N (antibody, V domains shown) VH: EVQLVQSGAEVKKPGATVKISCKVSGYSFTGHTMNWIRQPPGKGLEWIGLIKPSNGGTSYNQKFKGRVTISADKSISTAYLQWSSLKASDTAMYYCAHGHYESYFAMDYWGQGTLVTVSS VL: DIQMTQSPSSLSASVGDRVTITCKASQDVSSAVAWYQQKPGQAPRLLIYWASTRHTGVPSRFSGSGSGTEFTLTISSLQPDDFATYYCQEHNSTPLTFGQGTKVEIK , thanks.
Result: 1.93

Cited source: patent US20250276075A1
